Measured pEC50 values are reported for all entries that follow.
molecular target: human AT1R (Homo sapiens, UniProt P30556); assay: beta-arrestin2 recruitment assay (PathHunter), human AT1R; assay type: cell-based; settings: read-out: EC50
pEC50: −log10 of the molar value. Where a SMILES comes first, the peptide text is derived from it. [ ]: non-standard residue; d: D form. Val(3-OH) = CC(C)(O)[C@H](N)C(=O)O; Ac6c = NC1(C(=O)O)CCCCC1; Sar = CNCC(=O)O

Solved entries:
Task: Which pEC50 reading was recorded for the compound CNCC(=O)N[C@@H](CCCNC(=N)N)C(=O)N[C@H](C(=O)N[C@@H](Cc1ccc(O)cc1)C(=O)NC1(C(=O)N[C@@H](Cc2c[nH]cn2)C(=O)N2CCC[C@H]2C(=O)N[C@@H](CS)C(=O)O)CCCCC1)C(C)C [SEQ ID NO: 34, Sar-Arg-Val-Tyr-cyHex-His-Pro-Cys] (H-[Sar]RVY[Ac6c]HPC-OH) ?
Output: < 8.49

Task: Which pEC50 reading was recorded for the compound CNCC(=O)N[C@@H](CCCNC(=N)N)C(=O)N[C@H](C(=O)N[C@@H](Cc1ccc(O)cc1)C(=O)NC1(C(=O)N[C@@H](Cc2c[nH]cn2)C(=O)N2CCC[C@H]2C(=O)N[C@H](C(=O)O)C(C)(C)O)CCCCC1)C(C)C [SEQ ID NO: 31, Sar-Arg-Val-Tyr-cyHex-His-Pro-AA03] (H-[Sar]RVY[Ac6c]HP[Val(3-OH)]-OH) ?
Output: < 8.49

Next compound, pEC50 to be filled in.
Task: Which pEC50 reading was recorded for the compound CC[C@H](C)[C@@H](C(=O)N[C@@H](Cc1c[nH]cn1)C(=O)N1CCC[C@H]1C(=O)N[C@@H](C)C(=O)O)N(C)C(=O)[C@H](Cc1ccc(O)cc1)NC(=O)[C@@H](NC(=O)[C@H](CCCNC(=N)N)NC(=O)CNC)C(C)C ?
Output: < 8.49

---

Molecular target: human AT1R (Homo sapiens)
Sequence (P30556 1-359): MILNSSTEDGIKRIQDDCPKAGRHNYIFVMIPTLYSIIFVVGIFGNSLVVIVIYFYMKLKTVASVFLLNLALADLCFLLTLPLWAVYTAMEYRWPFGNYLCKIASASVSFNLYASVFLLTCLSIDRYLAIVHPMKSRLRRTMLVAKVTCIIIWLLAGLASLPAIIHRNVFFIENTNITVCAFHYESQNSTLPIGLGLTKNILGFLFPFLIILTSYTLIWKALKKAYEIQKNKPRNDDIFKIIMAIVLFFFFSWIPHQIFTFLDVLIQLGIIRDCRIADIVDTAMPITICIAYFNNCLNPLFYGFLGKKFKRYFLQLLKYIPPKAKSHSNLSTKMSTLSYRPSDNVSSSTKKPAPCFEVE
Experiment: IP1 accumulation assay (IP1 G-protein assay), human AT1R
Assay type: cell-based
Details: read-out: Span (relative to hAngII)
Where a SMILES comes first, the peptide text is derived from it. [ ]: non-standard residue; d: D form. Ac6c = NC1(C(=O)O)CCCCC1; Ac5c = NC1(C(=O)O)CCCC1; Sar = CNCC(=O)O
metric_name: Emax

Task: Which Emax reading was recorded for the compound CNCC(=O)N[C@@H](CCSC)C(=O)N[C@H](C(=O)N[C@@H](Cc1ccc(O)cc1)C(=O)NC1(C(=O)N[C@@H](Cc2c[nH]cn2)C(=O)N2CCC[C@H]2C(=O)N[C@@H](C)C(=O)O)CCCCC1)C(C)C [SEQ ID NO: 45, Sar-Met-Val-Tyr-cyHex-His-Pro-Ala] (H-[Sar]MVY[Ac6c]HPA-OH; N-terminus and C-terminus assumed) ?
Output: < 103%

Task: Which Emax reading was recorded for the compound CNCC(=O)N[C@@H](CCCNC(=N)N)C(=O)N[C@H](C(=O)N[C@@H](Cc1ccc(O)cc1)C(=O)NC1(C(=O)N[C@@H](Cc2c[nH]cn2)C(=O)N2CCC[C@H]2C(=O)N[C@H](C(=O)O)C(C)C)CCCC1)C(C)C [SEQ ID NO: 20, Sar-Arg-Val-Tyr-cyPen-His-Pro-Val] (H-[Sar]RVY[Ac5c]HPV-OH) ?
Output: < 103%

Task: Which Emax reading was recorded for the compound CNCC(=O)N[C@@H](CCCNC(=N)N)C(=O)N[C@H](C(=O)N[C@@H](Cc1ccc(O)cc1)C(=O)NC1(C(=O)N[C@@H](Cc2c[nH]cn2)C(=O)N2CCC[C@H]2C(=O)N[C@@H](CCC(N)=O)C(=O)O)CCCCC1)C(C)C [SEQ ID NO: 38, Sar-Arg-Val-Tyr-cyHex-His-Pro-Gln] (H-[Sar]RVY[Ac6c]HPQ-OH) ?
Output: < 103%
